Reported IC50 values are given for each entry in this list.
TESTED_SYSTEM: H1975 (EGFR L858/T790M) (Homo sapiens, UniProt P00533, L858R/T790M)
Sequence (P00533 25-1210 T790M/L858R): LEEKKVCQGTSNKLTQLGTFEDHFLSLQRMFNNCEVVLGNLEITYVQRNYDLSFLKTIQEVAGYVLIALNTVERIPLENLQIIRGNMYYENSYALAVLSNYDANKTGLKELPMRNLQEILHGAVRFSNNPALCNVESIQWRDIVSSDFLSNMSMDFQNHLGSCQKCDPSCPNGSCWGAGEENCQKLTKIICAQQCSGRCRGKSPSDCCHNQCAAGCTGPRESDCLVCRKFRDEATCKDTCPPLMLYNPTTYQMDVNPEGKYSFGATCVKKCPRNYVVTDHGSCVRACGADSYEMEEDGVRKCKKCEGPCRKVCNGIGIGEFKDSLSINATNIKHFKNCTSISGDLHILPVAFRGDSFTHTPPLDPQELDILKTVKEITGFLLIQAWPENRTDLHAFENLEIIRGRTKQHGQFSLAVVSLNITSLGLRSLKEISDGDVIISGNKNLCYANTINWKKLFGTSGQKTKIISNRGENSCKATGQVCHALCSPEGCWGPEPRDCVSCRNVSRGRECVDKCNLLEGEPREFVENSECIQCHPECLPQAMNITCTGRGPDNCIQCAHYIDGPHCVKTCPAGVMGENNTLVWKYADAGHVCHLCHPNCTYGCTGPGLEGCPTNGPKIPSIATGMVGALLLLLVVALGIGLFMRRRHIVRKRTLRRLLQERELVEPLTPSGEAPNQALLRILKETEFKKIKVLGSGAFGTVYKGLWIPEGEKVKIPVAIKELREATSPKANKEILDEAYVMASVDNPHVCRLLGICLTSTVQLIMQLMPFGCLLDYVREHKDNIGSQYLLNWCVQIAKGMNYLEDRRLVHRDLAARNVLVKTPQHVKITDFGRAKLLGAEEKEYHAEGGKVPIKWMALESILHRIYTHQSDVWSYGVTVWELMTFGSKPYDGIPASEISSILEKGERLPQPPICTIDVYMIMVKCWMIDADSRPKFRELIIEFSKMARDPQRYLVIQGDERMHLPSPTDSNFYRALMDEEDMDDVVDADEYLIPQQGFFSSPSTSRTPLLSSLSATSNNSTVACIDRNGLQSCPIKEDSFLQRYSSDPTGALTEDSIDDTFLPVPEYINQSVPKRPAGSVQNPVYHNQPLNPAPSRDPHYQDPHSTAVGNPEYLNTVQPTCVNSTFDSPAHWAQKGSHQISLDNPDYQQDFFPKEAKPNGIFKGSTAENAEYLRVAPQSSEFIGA
PROCEDURE_TEXT: EGFR target modulation in H1975 cell line (phospho-EGFR Y1173 ELISA)
Assay type: cell-based
Method: EGFR Target Modulation in H1975, H3255 and HCC827 Cell Lines Tissue Culture. Cells were maintained in 10% FBS/RPMI supplemented with 100 μg/ml Penicillin/Streptomycin (Hyclone #SH30236.01). […] The cells were allowed to incubate overnight in a 37° C., 5% CO2 humidified tissue culture incubator. […] Signal was read on EnVision plate reader using built-in UltraLUM setting. […] With these parameters, the IC50's for each compound in each cell line was calculated using non-linear curve fitting analysis.

{"MOLECULE": "Cc1cc(C(=O)Nc2nc3cccc(Cl)c3n2[C@@H]2CCCCN(C(=O)/C=C/CN3CCC(F)(F)C3)C2)ccn1 [Example 3-3]", "DISPLAY_UNIT": "nM", "QUALIFIER": "=", "IC50": 249}
{"MOLECULE": "C=CC(=O)N1CCCC[C@@H](n2c(NC(=O)c3ccnnc3)nc3cccc(Cl)c32)C1 [Example 17-15]", "DISPLAY_UNIT": "nM", "QUALIFIER": "=", "IC50": 6}
{"MOLECULE": "Cc1cccc2nc(NC(=O)c3ccnc(F)c3)n(C3CCCCN(C(=O)/C=C/CN(C)C)C3)c12 (stereo not shown) [Example 17-58]", "DISPLAY_UNIT": "nM", "QUALIFIER": "=", "IC50": 3}
{"MOLECULE": "C/C=C/C(=O)N1CCCC[C@@H](n2c(NC(=O)c3ccnc(C)c3)nc3cc(CN4CCCC4)cc(C)c32)C1 [Example 17-164]", "DISPLAY_UNIT": "nM", "QUALIFIER": "=", "IC50": 58}
{"MOLECULE": "C=CC(=O)N1CCCC[C@@H](n2c(NC(=O)c3ccnc(C)c3)nc3cc(CN4CC[C@@H](OC)C4)cc(C)c32)C1 [Example 17-150]", "DISPLAY_UNIT": "nM", "QUALIFIER": "=", "IC50": 2}
{"MOLECULE": "Cc1cccc2nc(NC(=O)c3cncc(C(F)(F)F)c3)n([C@@H]3CCCCN(C(=O)/C=C/CN(C)C)C3)c12 [Example 17-67]", "DISPLAY_UNIT": "nM", "QUALIFIER": "=", "IC50": 2}
{"MOLECULE": "Cc1cccc2nc(NC(=O)c3cncc(F)c3)n([C@@H]3CCCCN(C(=O)/C=C/CN(C)C)C3)c12 [Example 17-69]", "DISPLAY_UNIT": "nM", "QUALIFIER": "=", "IC50": 1}
{"MOLECULE": "C/C=C/C(=O)N1CCCC[C@@H](n2c(NC(=O)c3cc(C)nc(C)c3)nc3cc(CN4CC[C@H](F)C4)cc(C)c32)C1 [Example 17-165]", "DISPLAY_UNIT": "nM", "QUALIFIER": "=", "IC50": 39}
{"MOLECULE": "Cc1cc(C(=O)Nc2nc3cccc(C(F)(F)F)c3n2[C@@H]2CCCCN(C(=O)/C=C/CN(C)C)C2)cc(C)n1 [Example 17-188]", "DISPLAY_UNIT": "nM", "QUALIFIER": "=", "IC50": 16}
{"MOLECULE": "C=CC(=O)N1CCCC[C@@H](n2c(NC(=O)c3ccnnc3)nc3cccc(OC(C)C)c32)C1 [Example 17-86]", "DISPLAY_UNIT": "nM", "QUALIFIER": "=", "IC50": 12}
{"MOLECULE": "C=CC(=O)N1CCCC[C@@H](n2c(NC(=O)c3ccnc(C)c3)nc3cc(CN4CC[C@H](OC)C4)cc(C)c32)C1 [Example 17-149]", "DISPLAY_UNIT": "nM", "QUALIFIER": "<", "IC50": 1}
{"MOLECULE": "C=CC(=O)N1CCCC[C@@H](n2c(NC(=O)c3cnnc(C)c3)nc3cc(CN4CCCC4)cc(C)c32)C1 [Example 17-161]", "DISPLAY_UNIT": "nM", "QUALIFIER": "=", "IC50": 8}
{"MOLECULE": "COc1ccc2nc(NC(=O)c3ccnnc3)n([C@@H]3CCCCN(C(=O)/C=C/CN(C)C)C3)c2c1Cl [Example 17-2]", "DISPLAY_UNIT": "nM", "QUALIFIER": "=", "IC50": 76}
